- method_notes: Stability of narcotic conjugates in water (narcotic release, abuse resistance tests)
- Assay type: physicochemical
- test_parameters: numbers based upon narcotic release
measured_metric: H2O (1 h, 90 C.)

COc1ccc2c3c1OC1C(OC(=O)C(N)Cc4ccccc4)=CCC4C(C2)N(C)CCC314 (stereo not shown) = 54
COc1ccc2c3c1O[C@H]1C(OC(=O)[C@@H](N)CC(C)C)=CC[C@H]4[C@@H](C2)N(C)CC[C@]314 [Leu-HC, Leu-Hydrocodone] = 49

Please report H2O (1 h, 90 C.) for the following compound: COc1ccc2c3c1OC1C(OC(=O)C(N)CO)=CCC4C(C2)N(C)CCC314 (stereo not shown)
98

Please report H2O (1 h, 90 C.) for the following compound: COc1ccc2c3c1OC1C(OC(=O)CN)=CCC4C(C2)N(C)CCC314 (stereo not shown) [Gly-HC, 6-O-Gly-Hydrocodone]
63

Where do these numbers come from? They come from patent US7622441B2.
